Listing of recorded selectivity ratio by entry.
# protocol.notes: in vitro
# measurement.parameters: human, HEK293 cells
# Description: Selectivity index, ratio of antimicrobial activity against Plasmodium falciparum 3D7 over cytotoxicity against human HEK293 cells
readout: selectivity ratio

compound=C[n+]1ccc2cc3c(cc2c1Cc1ccc(O)cc1)OCO3.O=C([O-])C(F)(F)F readout="selectivity ratio" recorded_measurement="> 40"
compound="C[C@@H]1CC[C@H]2[C@@H](C)C(=O)O[C@@H]3O[C@@]4(C)CC[C@@H]1[C@]32OO4 [ARTEMISININ]" readout="selectivity ratio" recorded_measurement="> 100"
compound=COc1ccc2c(c1O)-c1c(OC)c(OC)cc3c1[C@H](C2)NCC3.O=C(O)C(F)(F)F readout="selectivity ratio" recorded_measurement="> 6"

###

Listing of recorded selectivity ratio by entry.
# protocol.notes: in vitro
# measurement.parameters: human, HEK293 cells
# Description: Selectivity index, ratio of antimicrobial activity against Plasmodium falciparum Dd2 over cytotoxicity against human HEK293 cells
readout: selectivity ratio

compound=C[n+]1ccc2cc3c(cc2c1Cc1ccc(O)cc1)OCO3.O=C([O-])C(F)(F)F recorded_measurement="> 27"
compound=COc1ccc2c(c1O)-c1c(OC)c(OC)cc3c1[C@H](C2)NCC3.O=C(O)C(F)(F)F recorded_measurement="> 6"
compound="C[C@@H]1CC[C@H]2[C@@H](C)C(=O)O[C@@H]3O[C@@]4(C)CC[C@@H]1[C@]32OO4 [ARTEMISININ]" recorded_measurement="> 100"

Values from ChEMBL document CHEMBL1153808
